Could you please report measured pIC50 for the items listed next?
- test target: kallikrein
- test: Enzyme inhibition, TAME hydrolysis, kallikrein (method of Muramatsu et al.)
- condition summary: read-out: ID50, kallikrein
Give bare numbers, as −log10 of the molar value.

Solved entries:
// returns reported pIC50 for input N=C(N)c1ccc2cc(OC(=O)CCCCCNC(=O)OCc3ccccc3)ccc2c1 4.40

Which pIC50 value is on record for CC(=O)Oc1ccc2cc(C(=N)N)ccc2c1 [Compound No. 1, 6-amidino-2-naphthyl acetate] ? 3.30

What measured pIC50 goes with N=C(N)c1ccc2cc(OC(=O)CCCCCN)ccc2c1 [Compound No. 17, 6-amidino-2-naphthyl ε-aminocaproate] ? 4.30

For the 2 compounds below, give their pIC50 values.
1. N=C(N)c1ccc2cc(OC(=O)[C@H]3CC[C@H](CNC(=O)OCc4ccccc4)CC3)ccc2c1
2. CC(C)CC(=O)Oc1ccc2cc(C(=N)N)ccc2c1 [Compound No. 3, 6-amidino-2-naphthyl isovalerate]

[5.22, 3.30]
